The reported numbers originate from ChEMBL document CHEMBL2203239.

Test: Selectivity index, ratio of CC50 for HIV1 3B infected in human MT4 cells to EC50 for HIV1 3B
Format: toxicity, cell-based
Settings: MT4 cells infected with HIV1 3B, read-out: Ratio CC50/EC50
Mark True for reported selectivity ratio of 9 or greater; mark False for anything smaller.

QUERY: // inclusive: selectivity ratio at least 9? input: `CCOC(=O)c1ccc(NC(=O)CSc2nccnc2-c2ccccc2Cl)c(Br)c1`
RESULT: False

QUERY: // inclusive: selectivity ratio at least 9? input: `COC(=O)c1sccc1NC(=O)CSc1nccnc1-c1ccccc1Cl`
RESULT: False

QUERY: // inclusive: selectivity ratio at least 9? input: `O=C(CSc1nccnc1-c1ccccc1Cl)Nc1ccc(Cl)cc1Cl`
RESULT: False

QUERY: // inclusive: selectivity ratio at least 9? input: `Nc1ccn([C@H]2CC[C@@H](CO)O2)c(=O)n1`
RESULT: True
